- Test system: U87MG_IDH1R132H
- Measurement notes: Cellular 2-HG production assay, U87-MG-IDH1 R132H
- Assay type: cell-based
- Setup conditions: inhibition of 2HG production, 72 hr incubation, LC-MS/MS
I'd be grateful if you could share measured IC50 for these entries.
Give the value, in units of nM, as a plain number.

[ask] IC50 for `C=CC(=O)N1CCN([C@H](CC)c2ccc([C@H](C)Nc3ncc4ccc(=O)n(C(C)C)c4n3)cc2)CC1` ?
[reply] 0.6

[ask] # iterate: `C[C@H](Nc1ncc2ccc(=O)n(CC(C)(C)C)c2n1)c1ccc2ccccc2c1`
[reply] 4040

[ask] # iterate: `CC(C)Cn1c(=O)ccc2cnc(N[C@@H](C)c3ccc(CN4CCC(F)(F)CC4)cc3)nc21`
[reply] 1770

[ask] # iterate: `CC(C)[C@H](C)n1c(=O)ccc2cnc(N[C@@H](C)c3ccc(CN4C[C@@H](C)O[C@@H](C)C4)c(F)c3)nc21`
[reply] 127
